# Tested System: BIR3 domain of XIAP (Homo sapiens (Human))
# Experiment Notes: TR-FRET assay for BIR3 (inhibition of binding to Peptide A)
# Condition Description: 6x His-tagged BIR3 domain (aa 241-356 of XIAP), 20 nM Peptide A, 10 concentrations
Where a name gives a salt, the structure may show the parent alone.
Quantity Kind: IC50

// IC50 value for CN[C@@H](C)C(=O)N[C@H]1CCc2ccccc2N(Cc2cc(C(C)C)ccc2OC)C1=O [Example 1o, hydrochloride] : > 51.5 µM

// IC50 value for CN[C@@H](C)C(=O)N[C@H]1CCc2ccccc2N(Cc2ccncc2)C1=O [Example 2h, hydrochloride] : > 54.8 µM

More entries:
// IC50 value for CN[C@@H](C)C(=O)N[C@H]1CCc2ccccc2N(Cc2c(C)cc(C)c3ccccc23)C1=O [Example 47bb, hydrochloride] : > 54 µM

// IC50 value for CN[C@@H](C)C(=O)N[C@H]1CCc2ccccc2N(Cc2c(OC)ccc3cc(-c4cn[nH]c4)ccc23)C1=O [Example 43, hydrochloride] : > 54.8 µM

// IC50 value for CN[C@@H](C)C(=O)N[C@H]1CCc2ccccc2N(Cc2ccc(C)c3ccccc23)C1=O [Example 47f, hydrochloride] : > 54.8 µM

====

# Tested System: BIR3 domain of XIAP (Homo sapiens (Human))
# Experiment Notes: TR-FRET assay for BIR3 (inhibition of binding to Peptide A)
# Condition Description: 6x His-tagged BIR3 domain (aa 241-356 of XIAP), 20 nM Peptide A, 10 concentrations
pIC50: −log10 of the molar value. Structures can show the parent of a compound that is named as a salt.
Quantity Kind: pIC50

Solved entries:
// pIC50 value for CN[C@@H](C)C(=O)N[C@H]1CCc2ccccc2N(Cc2c(OC)cnc3ccccc23)C1=O [Example 47ii, hydrochloride] : 4.35

// pIC50 value for CN[C@@H](C)C(=O)N[C@H]1CCc2ccccc2N(Cc2cc(F)ccc2F)C1=O [Example 1g, hydrochloride] : < 4.26

// pIC50 value for CN[C@@H](C)C(=O)N[C@H]1CCc2ccccc2N(Cc2c(OC)ccc3c2CCCC3)C1=O [Example 44, hydrochloride] : < 4.24

More entries:
// pIC50 value for CN[C@@H](C)C(=O)N[C@H]1CCc2ccccc2N(Cc2cc(Cl)ccc2OC)C1=O [Example 1f, hydrochloride] : < 4.26

// pIC50 value for CN[C@@H](C)C(=O)N[C@H]1CCc2ccccc2N(Cc2ccc(Br)c3ccccc23)C1=O [Example 47g, hydrochloride] : < 4.26

// pIC50 value for CN[C@@H](C)C(=O)N[C@H]1CCc2ccccc2N(Cc2c(C)ccc3ccccc23)C1=O [Example 47b, hydrochloride] : < 4.26

// pIC50 value for CN[C@@H](C)C(=O)N[C@H]1CCc2ccccc2N(Cc2cncs2)C1=O [Example 2c, hydrochloride] : < 4.29

====

Catalogue of pIC50 values
# Tested System: BIR3 domain of XIAP (Homo sapiens (Human), UniProt P98170)
# Sequence (P98170 other isoform, or with tags, fused parts or gaps): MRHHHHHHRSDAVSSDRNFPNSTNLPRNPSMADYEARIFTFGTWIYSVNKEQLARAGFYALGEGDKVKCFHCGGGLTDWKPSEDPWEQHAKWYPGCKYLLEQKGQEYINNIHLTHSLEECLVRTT
# Experiment Notes: TR-FRET assay for BIR3 (inhibition of binding to Peptide A)
# Condition Description: 6x His-tagged BIR3 domain (aa 241-356 of XIAP), 20 nM Peptide A, 10 concentrations
pIC50: −log10 of the molar value. Counter-ions that a name gives are not always drawn.

Solved entries:
// pIC50 value for CN[C@@H](C)C(=O)N[C@H]1CCc2ccccc2N(Cc2c(OC)ccc3ccccc23)C1=O [Example 47c, hydrochloride] : < 4.27

// pIC50 value for CN[C@@H](C)C(=O)N[C@H]1CCc2ccccc2N(Cc2cccc3ccc(Br)cc23)C1=O [Example 47ff, hydrochloride] : 4.32

// pIC50 value for CN[C@@H](C)C(=O)N[C@H]1CCc2ccccc2N(Cc2cc(Cl)ccc2Cl)C1=O [Example 1l, hydrochloride] : < 4.26

// pIC50 value for CN[C@@H](C)C(=O)N[C@H]1CCc2ccccc2N(Cc2cccc3ccccc23)C1=O [Example 47h, hydrochloride] : < 4.27

// pIC50 value for CN[C@@H](C)C(=O)N[C@H]1CCc2ccccc2N(Cc2cc(I)ccc2OC)C1=O [Example 1n, hydrochloride] : 4.37

More entries:
// pIC50 value for CN[C@@H](C)C(=O)N[C@H]1CCc2ccccc2N(Cc2nn(C)c3ccccc23)C1=O [Example 1b, hydrochloride] : < 4.26

// pIC50 value for CN[C@@H](C)C(=O)N[C@H]1CCc2ccccc2N(Cc2cnco2)C1=O [Example 2e, hydrochloride] : < 4.26

// pIC50 value for CN[C@@H](C)C(=O)N[C@H]1CCc2ccccc2N(Cc2cc(Br)cc3ccccc23)C1=O [Example 47gg, hydrochloride] : < 4.26

// pIC50 value for CN[C@@H](C)C(=O)N[C@H]1CCc2ccccc2N(Cc2ccsc2)C1=O [Example 2b, hydrochloride] : < 4.29

// pIC50 value for CN[C@@H](C)C(=O)N[C@H]1CCc2ccccc2N(Cc2ccnc3ccccc23)C1=O [Example 47d, hydrochloride] : < 4.26

// pIC50 value for CN[C@@H](C)C(=O)N[C@H]1CCc2ccccc2N(Cc2cccc3ncccc23)C1=O [Example 47e, hydrochloride] : < 4.26

// pIC50 value for CN[C@@H](C)C(=O)N[C@H]1CCc2ccccc2N(Cc2cc(Br)ccc2OC)C1=O [Example 1e, hydrochloride] : < 4.26

====

# Tested System: BIR3 domain of XIAP (Homo sapiens (Human), UniProt P98170)
# Experiment Notes: TR-FRET assay for BIR3 (inhibition of binding to Peptide A)
# Condition Description: 6x His-tagged BIR3 domain (aa 241-356 of XIAP), 20 nM Peptide A, 10 concentrations
Counter-ions that a name gives are not always drawn.
Catalogue of IC50 values

Solved entries:
// IC50 value for CN[C@@H](C)C(=O)N[C@H]1CCc2ccccc2N(Cc2ccc(Cl)cc2OC)C1=O [Example 1i, hydrochloride] : > 54.8 µM

// IC50 value for CN[C@@H](C)C(=O)N[C@H]1CCc2ccccc2N(Cc2noc3ccccc23)C1=O [Example 1k, hydrochloride] : > 54.8 µM

// IC50 value for CN[C@@H](C)C(=O)N[C@H]1CCc2ccccc2N(Cc2c(OC)ccc3cc(C(C)=O)ccc23)C1=O [Example 45, hydrochloride] : > 54.8 µM

More entries:
// IC50 value for CN[C@@H](C)C(=O)N[C@H]1CCc2ccccc2N(Cc2cccc3cccc(Br)c23)C1=O [Example 47hh, hydrochloride] : > 54.8 µM

// IC50 value for CN[C@@H](C)C(=O)N[C@H]1CCc2ccccc2N(Cc2cccs2)C1=O [Example 2a, hydrochloride] : > 51.5 µM

// IC50 value for CN[C@@H](C)C(=O)N[C@H]1CCc2ccccc2N(Cc2ccnc3ncccc23)C1=O [Example 47cc, hydrochloride] : > 54.8 µM

// IC50 value for CN[C@@H](C)C(=O)N[C@H]1CCc2ccccc2N(Cc2nccs2)C1=O [Example 2d, hydrochloride] : > 54.8 µM

// IC50 value for CN[C@@H](C)C(=O)N[C@H]1CCc2ccccc2N(Cc2cnnc3ccccc23)C1=O [Example 47aa, hydrochloride] : > 54.8 µM

// IC50 value for CN[C@@H](C)C(=O)N[C@H]1CCc2ccccc2N(Cc2ccc(Br)cc2OC)C1=O [Example 1j, hydrochloride] : > 54.8 µM

// IC50 value for CN[C@@H](C)C(=O)N[C@H]1CCc2ccccc2N(Cc2cc(F)ccc2OC)C1=O [Example 1a, hydrochloride] : > 54.8 µM

// IC50 value for CN[C@@H](C)C(=O)N[C@H]1CCc2ccccc2N(Cc2cccnc2)C1=O [Example 2f, hydrochloride] : > 51.5 µM

// IC50 value for C#Cc1ccc2ccccc2c1CN1C(=O)[C@@H](NC(=O)[C@H](C)NC)CCc2ccccc21 [Example 47i, hydrochloride] : > 54.8 µM

// IC50 value for C=Cc1ccc2c(CN3C(=O)[C@@H](NC(=O)[C@H](C)NC)CCc4ccccc43)c(OC)ccc2c1 [Example 46, hydrochloride] : > 54.8 µM

// IC50 value for CN[C@@H](C)C(=O)N[C@H]1CCc2ccccc2N(Cc2cc(Cl)ccc2F)C1=O [Example 1m, hydrochloride] : > 51.5 µM

// IC50 value for CN[C@@H](C)C(=O)N[C@H]1CCc2ccccc2N(Cc2c(OC(C)C)ccc3ccccc23)C1=O [Example 47dd, hydrochloride] : > 54.8 µM

// IC50 value for CN[C@@H](C)C(=O)N[C@H]1CCc2ccccc2N(Cc2cc(C(F)(F)F)ccc2OC)C1=O [Example 1c, hydrochloride] : > 54.8 µM
